Molecular target: Endonuclease III-like protein 1 (Homo sapiens);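 note: enzyme assay tracking NTHL1 cutting and release of a quenched double-stranded DNA oligo substrate, read as fluorescence at 594 nm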
Conditions: Compound Concentration 10.0 uM, Hit Yes
Measurement Kind: inhibition

compound_structure=CN1CCN(c2ccc(Nc3c4ccccc4nc4ccccc34)cc2)CC1 result=84.8%
compound_structure=Cc1ccc2nc(NCCN)c3ncc(C)n3c2c1 result=43.3%
compound_structure=O=C(NS(=O)(=O)N1CCC1)c1cc(C2CC2)c(OCC23CC4CC(CC(C4)C2)C3)cc1F result=56.7%
compound_structure=CC(=O)[C@H]1CC[C@H]2[C@@H]3CC[C@H]4C[C@H](O)CC[C@]4(C)[C@H]3CC[C@]12C result=46%
compound_structure=CO[C@H]1/C=C/O[C@@]2(C)Oc3c(C)c(O)c4c(O)c(c(/C=N/N5CCN(C)CC5)c(O)c4c3C2=O)NC(=O)/C(C)=C\C=C\[C@H](C)[C@H](O)[C@@H](C)[C@@H](O)[C@@H](C)[C@H](OC(C)=O)[C@@H]1C result=27.6%

* * *

Catalogue of inhibition values
Molecular target: N-glycosylase/DNA lyase (Homo sapiens) (UniProt O15527)
Sequence (O15527 whole entry): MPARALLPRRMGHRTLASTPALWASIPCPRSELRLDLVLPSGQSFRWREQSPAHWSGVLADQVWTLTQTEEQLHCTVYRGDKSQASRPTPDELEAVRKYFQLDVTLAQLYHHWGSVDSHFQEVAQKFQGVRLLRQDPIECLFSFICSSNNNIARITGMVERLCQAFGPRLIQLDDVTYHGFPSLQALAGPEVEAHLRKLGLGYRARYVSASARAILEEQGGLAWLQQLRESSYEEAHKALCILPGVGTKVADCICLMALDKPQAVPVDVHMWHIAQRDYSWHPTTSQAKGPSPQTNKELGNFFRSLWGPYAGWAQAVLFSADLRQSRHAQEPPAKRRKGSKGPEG
Settings: Compound Concentration 10.0 uM, Hit No
Measurement Kind: inhibition (%)

compound_structure=Cc1ccccc1-c1cc(N2CCN(C)CC2)ncc1N(C)C(=O)C(C)(C)c1cc(C(F)(F)F)cc(C(F)(F)F)c1 subject_of_test="N-glycosylase/DNA lyase (Homo sapiens) (UniProt O15527)" numeric_result=-7.29
compound_structure=NCCc1c[nH]c2ccc(C(N)=O)cc12 subject_of_test="N-glycosylase/DNA lyase (Homo sapiens) (UniProt O15527)" numeric_result=-3.21
compound_structure=Cc1csc(NC(=O)c2cc(F)cc(Oc3cncnc3)c2)n1 subject_of_test="N-glycosylase/DNA lyase (Homo sapiens) (UniProt O15527)" numeric_result=-8.23
compound_structure=Oc1ccc2c3c1O[C@H]1c4[nH]c5c(c4C[C@@]4(O)[C@@H](C2)N(CC2CC2)CC[C@]314)C[C@@]1(O)[C@H]2Cc3ccc(O)c4c3[C@@]1(CCN2CC1CC1)[C@H]5O4 subject_of_test="N-glycosylase/DNA lyase (Homo sapiens) (UniProt O15527)" numeric_result=7.55

* * *

Molecular target: Single-strand selective monofunctional uracil DNA glycosylase (Homo sapiens);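 note: enzymatic SMUG1 assay coupled with APE1, reading fluorescence at 594 nm released when a quenched double-stranded DNA oligonucleotide substrate is cleaved and separated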
Sequence (whole entry): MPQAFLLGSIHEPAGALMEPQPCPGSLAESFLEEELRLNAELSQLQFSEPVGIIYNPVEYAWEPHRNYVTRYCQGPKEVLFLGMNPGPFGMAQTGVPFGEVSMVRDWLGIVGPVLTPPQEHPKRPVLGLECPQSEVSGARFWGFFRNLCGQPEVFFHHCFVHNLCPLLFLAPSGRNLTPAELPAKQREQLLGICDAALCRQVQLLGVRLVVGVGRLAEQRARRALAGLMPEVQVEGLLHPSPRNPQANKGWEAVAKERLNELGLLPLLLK
Details: Compound Concentration 10.0 uM, Hit No
Measurement Kind: inhibition (%)

compound=CC(C)(O)c1ccccc1CC[C@@H](SCC1(CC(=O)O)CC1)c1cccc(/C=C/c2ccc3ccc(Cl)cc3n2)c1 measurement_kind=inhibition numeric_result=11.9
compound=C[C@@H]1CN(c2nccc(Nc3ccc4c(c3)n(CCC(C)(C)O)c(=O)n4C)n2)C[C@H](C)C1(F)F measurement_kind=inhibition numeric_result=7.55
compound=O=C(O)[C@@H]1[C@@H](Cn2nnc3ccccc3c2=O)CC[C@H]1C(=O)c1ccc(OCCC2CCOCC2)cc1 measurement_kind=inhibition numeric_result=18.6
compound="COc1cc(C)c(Sc2cnc(NC(=O)c3ccc(CNC(C)C(C)(C)C)cc3)s2)cc1C(=O)N1CCN(C(C)=O)CC1 (stereo not drawn)" measurement_kind=inhibition numeric_result=19.5
compound="O=C(N[C@H]1CCCCC/C=C\\C2C[C@@]2(C(=O)O)NC(=O)[C@@H]2C[C@@H](Oc3ccncc3)CN2C1=O)OC1CCCC1 (stereo partly drawn)" measurement_kind=inhibition numeric_result=20
compound=CC(=O)Nc1ccc(-c2cc(-c3ccccc3)nc3cc(C(=O)NCCCn4ccnc4)nn23)cc1 measurement_kind=inhibition numeric_result=10.4
compound=O=C(NNC(=O)c1ccc(CNS(=O)(=O)c2ccc(F)c(Cl)c2)cc1)c1ccccc1 measurement_kind=inhibition numeric_result=13.3
compound=N[C@@]1(C(=O)O)CO[C@H]2[C@H](C(=O)O)[C@H]21 measurement_kind=inhibition numeric_result=2.42
compound=CCC(C)(C)/N=C(\NC#N)Nc1cccnc1 measurement_kind=inhibition numeric_result=-2.33
compound=CCC(=O)NCC[C@@H]1CCc2ccc3c(c21)CCO3 measurement_kind=inhibition numeric_result=-9.19
compound=C=C1/C(=C\C=C2/CCC[C@]3(C)[C@@H]([C@H](C)/C=C/[C@H](C)C(C)C)CC[C@@H]23)C[C@@H](O)C[C@@H]1O measurement_kind=inhibition numeric_result=9.91
compound="OCCOCCN1CCN(C(c2ccccc2)c2ccc(Cl)cc2)CC1 (stereo not drawn)" measurement_kind=inhibition numeric_result=2.34
compound=O=C(NCC(=O)N1CC[C@H](N[C@H]2CC[C@@](O)(c3ccc(-c4ncccn4)cn3)CC2)C1)c1cccc(C(F)(F)F)c1 measurement_kind=inhibition numeric_result=2.1
compound="Cc1onc(O)c1CC(N)C(=O)O (stereo not drawn)" measurement_kind=inhibition numeric_result=-3.23
compound=Cc1cc(NC(=O)Nc2ccccc2)n(-c2ccccc2)n1 measurement_kind=inhibition numeric_result=0.777
compound=C[C@@H](c1cccc(C#N)c1)n1cc(Cl)cc(C(N)=O)c1=N measurement_kind=inhibition numeric_result=9.26
compound=Cc1c(N2CCNCC2)nc2ccc(Br)cc2c1C(=O)NC[C@H](CCC(=O)O)c1ccccc1Cl measurement_kind=inhibition numeric_result=15
compound=Cc1cc(-c2ccc3c(c2)CC[C@H]3N2CC3(CCN(C(=O)Cc4cn5cc(C)sc5n4)CC3)C2)ncn1 measurement_kind=inhibition numeric_result=-0.24
compound=CN(C)C(=O)c1sc2nc(N3CCC(S(C)(=O)=O)CC3)cc(C(F)(F)F)c2c1N measurement_kind=inhibition numeric_result=-2.07
compound=O=C(NNS(=O)(=O)c1ccccc1F)c1cc(F)cc(-c2ccccn2)c1 measurement_kind=inhibition numeric_result=15.4
compound=O=C(O)C[C@H]1CCc2c1[nH]c1ccc(OCc3ccc(C4CCCC4)c(C(F)(F)F)c3)cc21 measurement_kind=inhibition numeric_result=-8.03
compound=CCn1c(=O)c(C)cn(Cc2nnc(-c3ccc(F)c(O)c3F)s2)c1=O measurement_kind=inhibition numeric_result=3.85
compound=Cc1csc2c(N[C@@H](C)CN3CCN(S(=O)(=O)c4ccc(Cl)c(Cl)c4)CC3)ncnc12 measurement_kind=inhibition numeric_result=-6.62
compound="Cc1c(OCc2cccc(-c3ccc(C(=O)O)cc3)c2)cc2c(c1C)C(=O)C(C1CCCC1)C2 (stereo not drawn)" measurement_kind=inhibition numeric_result=-3.76
compound="CCNC(=O)c1cc2c(N3CCOCC3C)ccnc2[nH]1 (stereo not drawn)" measurement_kind=inhibition numeric_result=15.1
compound=CC[C@@H](C)Nc1nc(C)nc2c(-c3ccc(OC)nc3C)c(C)nn12 measurement_kind=inhibition numeric_result=10.2
compound=Clc1ccc2nsnc2c1NC1=NCCN1 measurement_kind=inhibition numeric_result=2.87
compound=C=CCN1C[C@H](C)N([C@H](c2ccc(C(=O)N(CC)CC)cc2)c2cccc(O)c2)C[C@H]1C measurement_kind=inhibition numeric_result=10.6
compound=FC(F)(F)Oc1ccc(-c2ccc3nnc(C(F)(F)F)n3c2)cc1 measurement_kind=inhibition numeric_result=-3.97
compound=COc1cc2nc(N3CCN(C(=O)c4ccco4)CC3)nc(N)c2cc1OC measurement_kind=inhibition numeric_result=-2.6
compound=C[C@H](CCC(=O)O)[C@H]1CC[C@H]2[C@@H]3CC[C@@H]4C[C@H](O)CC[C@]4(C)[C@H]3CC[C@]12C measurement_kind=inhibition numeric_result=-9.19
compound=CCOc1c2c(c(OCC)c3ncccc13)CN(c1ccc(CS(=O)(=O)NC(=O)Cc3ccccc3OC)cc1C)C2=O measurement_kind=inhibition numeric_result=-1.24
compound=CC[C@H]1CN2CCc3cc(OC)c(OC)cc3[C@@H]2C[C@@H]1C[C@H]1NCCc2cc(OC)c(OC)cc21 measurement_kind=inhibition numeric_result=-7.35
compound=Cc1cc(Cn2nnc3c(-c4ccco4)nc(N)nc32)ccc1N measurement_kind=inhibition numeric_result=-2.07
compound=O=C1CCc2cc(Nc3cc(OC4CCOCC4)c([N+](=O)[O-])cc3Cl)ccc2N1 measurement_kind=inhibition numeric_result=24.3
compound=CCN(CC)CCCCC1CCN(CC(=O)N2c3ccccc3C(=O)Nc3cccnc32)CC1 measurement_kind=inhibition numeric_result=1.37
compound=Cc1ccc(F)cc1C(=O)Nc1ccc(C(=O)N2Cc3cccn3Cc3ccccc32)c(Cl)c1 measurement_kind=inhibition numeric_result=-2.41
compound=CCC(=O)N[C@@H]1CC[C@H](C(=O)N(C)c2ccc(-c3nc4ccccc4o3)cc2)C1 measurement_kind=inhibition numeric_result=5.39

* * *

Molecular target: Methyl-CpG-binding domain protein 4 (Homo sapiens) (UniProt O95243);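 note: MBD4 activity read as fluorescence at 594 nm from cleavage and release of a quenched duplex DNA oligonucleotide, with APE1 coupled to incise the strand and raise turnover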
Sequence (O95243 whole entry, the tested form may be a part): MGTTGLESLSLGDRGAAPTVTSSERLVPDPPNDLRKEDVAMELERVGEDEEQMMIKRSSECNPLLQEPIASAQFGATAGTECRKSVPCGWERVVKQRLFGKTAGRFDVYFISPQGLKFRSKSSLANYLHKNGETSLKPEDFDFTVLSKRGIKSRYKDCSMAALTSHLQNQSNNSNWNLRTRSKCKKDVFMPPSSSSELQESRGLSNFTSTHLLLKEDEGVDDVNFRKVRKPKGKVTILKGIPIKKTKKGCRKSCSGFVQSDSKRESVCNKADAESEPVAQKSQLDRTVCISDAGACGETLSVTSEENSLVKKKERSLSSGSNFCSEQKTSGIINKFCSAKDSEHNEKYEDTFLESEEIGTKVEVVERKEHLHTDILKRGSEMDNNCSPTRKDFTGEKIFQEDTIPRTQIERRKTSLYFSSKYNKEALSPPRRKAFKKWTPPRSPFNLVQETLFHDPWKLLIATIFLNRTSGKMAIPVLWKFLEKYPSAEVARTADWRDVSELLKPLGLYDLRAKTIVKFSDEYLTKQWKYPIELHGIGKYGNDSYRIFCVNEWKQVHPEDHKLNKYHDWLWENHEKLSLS
Conditions: Compound Concentration 10.0 uM, Hit No
Measurement Kind: inhibition (%)

compound_structure=COc1cc(NC(=O)c2ccc(-c3ccc(Cl)cc3)o2)cc(OC)c1 subject_of_test="Methyl-CpG-binding domain protein 4 (Homo sapiens) (UniProt O95243)" numeric_result=21.1
compound_structure=Nc1nc(Nc2ccccc2)nc2c1ncn2[C@@H]1O[C@H](CO)[C@@H](O)[C@H]1O subject_of_test="Methyl-CpG-binding domain protein 4 (Homo sapiens) (UniProt O95243)" numeric_result=11.6
compound_structure=CC#CC(=O)N1CCC[C@H]1c1nc(-c2ccc(C(=O)Nc3ccccn3)cc2)c2c(N)nccn12 subject_of_test="Methyl-CpG-binding domain protein 4 (Homo sapiens) (UniProt O95243)" numeric_result=-0.914
compound_structure=Cc1cc(-c2ccc3c(c2)CC[C@H]3N2CC3(CCN(C(=O)Cc4cn5cc(C)sc5n4)CC3)C2)ncn1 subject_of_test="Methyl-CpG-binding domain protein 4 (Homo sapiens) (UniProt O95243)" numeric_result=2.75
compound_structure=CCOP(=O)(OCC)C(=Cc1cc(C(C)(C)C)c(O)c(C(C)(C)C)c1)P(=O)(OCC)OCC subject_of_test="Methyl-CpG-binding domain protein 4 (Homo sapiens) (UniProt O95243)" numeric_result=49.5
compound_structure=c1ccc2nc(N3CCNCC3)ccc2c1 subject_of_test="Methyl-CpG-binding domain protein 4 (Homo sapiens) (UniProt O95243)" numeric_result=-0.572
compound_structure=Nc1nc2c(c(N3CCNCC3)n1)CCC1=C2[C@@H]2CCCC[C@@H]2O1 subject_of_test="Methyl-CpG-binding domain protein 4 (Homo sapiens) (UniProt O95243)" numeric_result=0.963
compound_structure=CN1CCN(C(=O)C(C)(C)c2ccc(C(=O)Nc3cn4cc(-c5ccncc5)ccc4n3)cc2)CC1 subject_of_test="Methyl-CpG-binding domain protein 4 (Homo sapiens) (UniProt O95243)" numeric_result=60.8
compound_structure=CC(C)(O)c1cnc(N2C[C@@]3(CCC[C@](C)(Cn4cnc5ccc(C#N)cc54)C3)OC2=O)cn1 subject_of_test="Methyl-CpG-binding domain protein 4 (Homo sapiens) (UniProt O95243)" numeric_result=9.84
compound_structure=CCC[C@H](Oc1cc(C)c(-n2cc(C(F)(F)F)cn2)c(C)c1)c1ccc(C(=O)NCCC(=O)O)cc1 subject_of_test="Methyl-CpG-binding domain protein 4 (Homo sapiens) (UniProt O95243)" numeric_result=19.8
